# MEASUREMENT DESCRIPTION: Pharmacokinetic evaluation in mice
# Format: in vivo, C57BL/6J male mice
# CONDITION SET: male, C57BL/6J, mouse, plasma, IP, 2 mg kg-1
ENDPOINT NAME: half-life

Request: For `CC[C@H](C(=O)N1CCCC[C@H]1C(=O)O[C@H](CCc1ccc(OC)c(OC)c1)c1ccccc1OCC(=O)NCCCCCCC(=O)N[C@H](C(=O)N1C[C@H](O)C[C@H]1C(=O)N[C@@H](C)c1ccc(-c2scnc2C)cc1)C(C)(C)C)c1cc(OC)c(OC)c(OC)c1` , write its half-life.
Response: 3.64 h
